Target: human Gal-1 (hGal-1)
Sequence (P09382 2-135 limits assumed): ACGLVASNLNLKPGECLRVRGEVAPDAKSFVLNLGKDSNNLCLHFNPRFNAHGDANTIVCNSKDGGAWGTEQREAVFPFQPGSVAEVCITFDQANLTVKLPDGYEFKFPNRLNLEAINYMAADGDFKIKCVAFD
Experiment: Competitive binding assay: biotinylated hGal-1 binding to microplate-adsorbed asialofetuin (ASF)
Conditions: Activity on hGal-1; binding of biotinylated hGal-1 to ASF-coated plates; mean values
Experimental: Evaluation of Compound Inhibitory Activity (IC50) The inhibitory activity of compounds is determined in competitive binding assays. This spectrophotometric assay measures the binding of biotinylated human Gal-3 (hGal-3) or human Gal-1 (hGAl-1), respectively, to a microplate-adsorbed glycoprotein, asialofetuin (ASF) (Proc Natl Acad Sci USA. 2013 Mar. 26; 110(13):5052-7.). […] The calculated IC50 values may fluctuate depending on the daily assay performance. […]
pIC50: −log10 of the molar value.
measured-quantity: pIC50

Below are worked cases with known answers.
compound	pIC50
CC(=O)O[C@@H]1[C@@H](n2cc(-c3cc(F)c(C)c(F)c3)nn2)[C@@H](O)[C@@H](CO)O[C@H]1C(=O)N(Cc1ccnn1C)[C@H]1CCCC[C@@H]1O	4.95
CO[C@@H]1[C@@H](n2cc(-c3cc(F)c(F)c(F)c3)nn2)[C@@H](O)[C@@H](CO)O[C@H]1C(=O)N(Cc1cccc(Cl)c1)[C@H]1CCCC[C@@H]1O [Example 54]	5.58
CO[C@@H]1[C@@H](n2cc(-c3cc(F)c(F)c(F)c3)nn2)[C@@H](O)[C@@H](CO)O[C@H]1C(=O)N(c1cc(Cl)cc(Br)c1)[C@H]1CCCC[C@@H]1O	6.39
Cc1ccc(-c2cn([C@H]3[C@@H](O)[C@@H](CO)O[C@@H](C(=O)N(c4cc(Cl)cc(C#N)c4)[C@H]4CCCC[C@@H]4O)[C@@H]3OCC(=O)O)nn2)c(F)c1F	6.38

(1) O=C([C@@H]1O[C@H](CO)[C@H](O)[C@H](n2cc(-c3cc(F)c(F)c(F)c3)nn2)[C@H]1O)N(Cc1cnoc1)[C@H]1CCCC[C@@H]1O
(2) CO[C@@H]1[C@@H](n2cc(-c3cc(F)c(F)c(Cl)c3)nn2)[C@@H](O)[C@@H](CO)O[C@H]1C(=O)N(c1ccc(F)c(F)c1)[C@H]1CCCC[C@@H]1O
Exam item: Which value of pIC50 is smaller, the one for 1 or the one for 2 ? Provide the label of your selected option as the answer.
Marked response: 1
(1: 4.55, 2: 6.03)

(I) CO[C@@H]1[C@@H](n2cc(-c3cc(F)c(F)c(F)c3)nn2)[C@@H](O)[C@@H](CO)O[C@H]1C(=O)N(c1cccc(C#N)c1)[C@H]1CCCC[C@@H]1O
(II) CO[C@@H]1[C@@H](n2cc(-c3cc(F)c(F)c(F)c3)nn2)[C@@H](O)[C@@H](CO)O[C@H]1C(=O)N(c1ccccc1)[C@H]1CCCC[C@@H]1O
Exam item: Could you check which of I and II has a smaller value for pIC50? Reply with the label of the item you choose.
Marked response: II
(II: 4.73, I: 6.00)

(P) COc1cc(F)c(F)cc1-c1cn([C@H]2[C@@H](O)[C@@H](CO)O[C@@H](C(=O)N(c3cc(Cl)cc(C#N)c3)[C@H]3CCCC[C@@H]3O)[C@@H]2OC)nn1
(Q) O=C([C@@H]1O[C@H](CO)[C@H](O)[C@H](n2cc(-c3nc(Cl)cs3)nn2)[C@H]1O)N(Cc1ccccc1C(F)(F)F)[C@H]1CCCC[C@@H]1O
Exam item: Lower pIC50: P or Q ? Kindly give the label for the entry you pick.
Marked response: Q
(Q: 5.88, P: 6.12)
